Target: EGFR d746-750/T790M (Homo sapiens, UniProt P00533, DEL746-750/T790M)
Sequence (P00533 with tags, fused parts or gaps DEL746-750/T790M limits assumed): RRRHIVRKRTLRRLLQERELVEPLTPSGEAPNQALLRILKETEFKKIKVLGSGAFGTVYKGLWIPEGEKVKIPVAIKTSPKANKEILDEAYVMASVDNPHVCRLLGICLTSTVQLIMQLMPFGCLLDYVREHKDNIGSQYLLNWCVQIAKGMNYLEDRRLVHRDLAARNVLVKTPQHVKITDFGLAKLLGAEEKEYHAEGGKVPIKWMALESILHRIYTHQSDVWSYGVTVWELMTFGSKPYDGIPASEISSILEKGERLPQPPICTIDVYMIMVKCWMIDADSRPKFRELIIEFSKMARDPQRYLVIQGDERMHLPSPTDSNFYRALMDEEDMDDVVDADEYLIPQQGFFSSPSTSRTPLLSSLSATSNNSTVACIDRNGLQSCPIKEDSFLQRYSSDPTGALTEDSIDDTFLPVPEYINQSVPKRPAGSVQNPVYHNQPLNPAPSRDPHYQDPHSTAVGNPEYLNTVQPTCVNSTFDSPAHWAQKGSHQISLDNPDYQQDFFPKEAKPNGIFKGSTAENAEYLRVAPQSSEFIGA
Experiment: EGFR d746-750/T790M enzyme HTRF inhibition assay
Conditions: 40 μM ATP
endpointName: pIC50
Here pIC50 is given on a logarithmic scale as minus log10 of the concentration in mol/L.

Examples with answers:
| compound | pIC50 |
| --- | --- |
| C=CC(=O)Nc1cc(Nc2ncc(F)c(-c3c4n(c5cc(Cl)ccc35)CCOC4)n2)c(OC)cc1N(C)CCN(C)C | 9.22 |
| C=CC(=O)Nc1cc(Nc2nccc(-c3c4n(c5ccccc35)CCC4)n2)c(OC)cc1CN1CCOCC1 | 9.29 |
| C=CC(=O)Nc1cc(Nc2nccc(-c3c4n(c5ccccc35)CCOC4)n2)c(OC)cc1N(C)C(C)CN(C)C (stereo not shown) | 9.77 |

Look up pIC50 of `C=CC(=O)Nc1cc(Nc2nccc(-c3c4n(c5cc(F)ccc35)CCOC4)n2)c(OC)cc1N(C)CCN(C)C` and report it.
10.00

Look up pIC50 of `C=CC(=O)Nc1cc(Nc2nccc(-c3c4n(c5ccccc35)CCC4)n2)c(OC)cc1OCCN(C)C` and report it.
9.72

Look up pIC50 of `C=CC(=O)Nc1cc(Nc2nccc(-c3c4n(c5ccccc35)CCOC4)n2)c(OC)cc1N(C)CC(C)(C)N(C)C` and report it.
9.89

Look up pIC50 of `C=CC(=O)Nc1cc(Nc2nccc(-c3c4n(c5ccccc35)CCOC4)n2)c(OC)cc1N(C)CCNC(C)(C)C` and report it.
8.89
